# system_under_test: P450BM3 variant V-H10(A87I) (Priestia megaterium, UniProt P14779, A181T/A185V/A198V/A291V/E253G/F206C/F88I/H237Q/L354V/P143S/R256S/S227R/T176I/V79N)
# Sequence (P14779 whole entry V79N/F88I/P143S/T176I/A181T/A185V/A198V/F206C/S227R/H237Q/E253G/R256S/A291V/L354V): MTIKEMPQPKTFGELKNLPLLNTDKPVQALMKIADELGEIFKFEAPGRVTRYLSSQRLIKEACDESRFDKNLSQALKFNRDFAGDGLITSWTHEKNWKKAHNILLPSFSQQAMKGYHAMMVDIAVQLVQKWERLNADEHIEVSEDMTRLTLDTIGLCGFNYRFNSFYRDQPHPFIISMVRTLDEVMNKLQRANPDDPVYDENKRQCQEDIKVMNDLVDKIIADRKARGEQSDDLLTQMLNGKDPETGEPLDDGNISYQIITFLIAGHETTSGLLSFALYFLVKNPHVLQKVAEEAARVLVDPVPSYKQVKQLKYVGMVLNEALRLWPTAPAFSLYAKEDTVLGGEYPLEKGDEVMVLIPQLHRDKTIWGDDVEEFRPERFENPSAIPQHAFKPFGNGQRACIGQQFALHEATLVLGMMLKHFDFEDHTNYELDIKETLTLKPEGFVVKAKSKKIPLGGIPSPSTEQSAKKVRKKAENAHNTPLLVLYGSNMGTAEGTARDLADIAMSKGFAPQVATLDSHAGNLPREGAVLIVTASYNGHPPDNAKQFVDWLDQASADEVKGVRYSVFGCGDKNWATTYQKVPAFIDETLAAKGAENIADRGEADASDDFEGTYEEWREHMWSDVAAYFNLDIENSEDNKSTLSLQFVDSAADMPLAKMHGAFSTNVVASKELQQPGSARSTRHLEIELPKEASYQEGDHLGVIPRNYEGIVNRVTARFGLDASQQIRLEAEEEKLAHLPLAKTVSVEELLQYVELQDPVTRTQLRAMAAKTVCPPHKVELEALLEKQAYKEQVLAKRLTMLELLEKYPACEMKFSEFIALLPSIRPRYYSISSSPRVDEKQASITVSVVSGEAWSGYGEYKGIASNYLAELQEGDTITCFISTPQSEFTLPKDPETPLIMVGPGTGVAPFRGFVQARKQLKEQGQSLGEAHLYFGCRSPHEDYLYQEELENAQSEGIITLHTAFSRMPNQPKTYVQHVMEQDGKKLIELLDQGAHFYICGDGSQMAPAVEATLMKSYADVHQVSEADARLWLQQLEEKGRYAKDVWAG
# test_details: Heme spin shift binding of MCL to P450 variant V-H10
quantity_measured: Kd (mM)

> print(dat)
                                   compound  quantity.measured  observed.result
1  C=C1C(=O)O[C@H]2[C@H]1CCC(C)=C1CC[C@@](C)(O)[C@@H]12 [MCL, micheliolide]                 Kd             1.25

###

# system_under_test: P450BM3 variant V-F10 (Priestia megaterium, UniProt P14779, A181T/A185V/A198V/A291V/E253G/F206C/F82V/F88A/H237Q/L354V/P143S/R256S/S227R/T176I/V79F)
# Sequence (P14779 whole entry V79F/F82V/F88A/P143S/T176I/A181T/A185V/A198V/F206C/S227R/H237Q/E253G/R256S/A291V/L354V): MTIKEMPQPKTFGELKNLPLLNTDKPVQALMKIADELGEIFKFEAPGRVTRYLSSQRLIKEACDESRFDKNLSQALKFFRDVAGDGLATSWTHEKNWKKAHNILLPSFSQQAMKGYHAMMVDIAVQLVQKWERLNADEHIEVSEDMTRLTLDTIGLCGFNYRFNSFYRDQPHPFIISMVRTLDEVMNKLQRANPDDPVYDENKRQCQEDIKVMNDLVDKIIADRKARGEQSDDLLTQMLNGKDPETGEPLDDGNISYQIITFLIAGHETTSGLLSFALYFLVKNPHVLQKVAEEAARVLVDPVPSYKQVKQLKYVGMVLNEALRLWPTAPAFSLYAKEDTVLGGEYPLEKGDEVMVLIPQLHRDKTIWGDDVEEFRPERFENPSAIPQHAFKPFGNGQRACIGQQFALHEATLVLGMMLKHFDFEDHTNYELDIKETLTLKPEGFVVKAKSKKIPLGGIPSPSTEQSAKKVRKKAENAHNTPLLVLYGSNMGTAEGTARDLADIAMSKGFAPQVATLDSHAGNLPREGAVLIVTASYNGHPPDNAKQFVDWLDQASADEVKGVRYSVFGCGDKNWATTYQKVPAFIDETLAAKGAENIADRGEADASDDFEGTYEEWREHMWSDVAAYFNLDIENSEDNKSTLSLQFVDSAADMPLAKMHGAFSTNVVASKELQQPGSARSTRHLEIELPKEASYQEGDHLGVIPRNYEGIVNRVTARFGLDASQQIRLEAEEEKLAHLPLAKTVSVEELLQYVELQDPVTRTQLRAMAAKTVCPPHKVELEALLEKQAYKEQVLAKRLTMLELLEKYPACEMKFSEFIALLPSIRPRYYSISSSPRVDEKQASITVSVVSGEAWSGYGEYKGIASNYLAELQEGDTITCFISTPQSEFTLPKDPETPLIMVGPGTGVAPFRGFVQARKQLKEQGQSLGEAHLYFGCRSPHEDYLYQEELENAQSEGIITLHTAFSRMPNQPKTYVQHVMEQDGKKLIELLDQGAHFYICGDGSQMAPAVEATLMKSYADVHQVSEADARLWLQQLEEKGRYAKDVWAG
# test_details: Heme spin shift binding of MCL to P450 variant V-F10
quantity_measured: Kd

> print(dat)
                                   molecule  quantity.measured  observed.result
1  C=C1C(=O)O[C@H]2[C@H]1CCC(C)=C1CC[C@@](C)(O)[C@@H]12 [MCL, micheliolide]                 Kd            88 µM

###

# system_under_test: P450BM3 variant V-H10(R47C,A87I) (Priestia megaterium, UniProt P14779, A181T/A185V/A198V/A291V/E253G/F206C/F88I/H237Q/L354V/P143S/R256S/R48C/S227R/T176I/V79N)
# Sequence (P14779 whole entry R48C/V79N/F88I/P143S/T176I/A181T/A185V/A198V/F206C/S227R/H237Q/E253G/R256S/A291V/L354V): as the sequence (P14779 whole entry V79F/F82V/F88A/P143S/T176I/A181T/A185V/A198V/F206C/S227R/H237Q/E253G/R256S/A291V/L354V) above, with R48C, F79N, V82F, A88I counted along it
# test_details: Heme spin shift binding of MCL to P450 variant V-H10
# Design: species or system Bacillus megaterium
# cond: 1 M KPi buffer (pH 8.0)
pKd: −log10 of the molar value.
quantity_measured: pKd

> print(dat)
                                   compound  observed.result
1  C=C1C(=O)O[C@H]2[C@H]1CCC(C)=C1CC[C@@](C)(O)[C@@H]12 [MCL, micheliolide]             3.89
